# target_system: SIX1-Q177R homeodomain (human, UniProt Q15475 108-198, Q177R)
# Sequence: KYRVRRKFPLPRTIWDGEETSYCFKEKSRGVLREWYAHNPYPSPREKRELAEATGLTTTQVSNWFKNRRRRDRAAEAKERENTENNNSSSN
# protocol_text: universal protein binding microarray; Universal all-10-mer PBM (8x60K, AMADID 030236), 300 nM GST-tagged protein, Alexa Fluor 488 anti-GST; buffer, salt, pH and temperature not stated (as in Berger); high values mean tight binding
# condition_set: protein: ivt; tags: N-terminal GST; dsDNA, one strand shown
In all, about 33,000 sequences were measured (“e-score”: median about -0.05, highest 2% from about 0.38 on). Shown is part of a subset that was picked to be rich in the highest values.
Exercise: for every item that follows, state its recorded binding signal.
Give your result in E-score as a bare value.

Task item: Using the record for CGATACAC , state its measured binding signal.
Reply: 0.402

Task item: Recall and state the measured binding signal for CGCAACAC .
Reply: 0.366

Task item: Please give measured binding signal of the following entry: ACCTCAAC
Reply: 0.27

Task item: Identify measured binding signal corresponding to GGGCACAC
Reply: 0.284

Task item: Please give measured binding signal of the following entry: CACACGCG
Reply: 0.296

Task item: State its binding signal: ACCAAGAG
Reply: 0.213

---

# target_system: SIX1-Q177R homeodomain (human, UniProt Q15475 108-198, Q177R)
# Sequence: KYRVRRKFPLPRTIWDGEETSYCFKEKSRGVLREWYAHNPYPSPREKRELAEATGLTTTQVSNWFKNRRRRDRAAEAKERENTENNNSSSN
# protocol_text: universal protein binding microarray; Universal all-10-mer PBM (8x60K, AMADID 030236), 300 nM GST-tagged protein, Alexa Fluor 488 anti-GST; buffer, salt, pH and temperature not stated (as in Berger); high values mean tight binding
# condition_set: protein: ivt; tags: N-terminal GST; dsDNA, one strand shown
In all, about 33,000 sequences were measured (“e-score”: median about -0.05, highest 2% from about 0.38 on). The sample as a whole holds a higher share of the highest values than the screen did.
param class (str): category from binding signal; see ranges low = under 0.2 E-score, intermediate = from 0.2 E-score up to 0.3 E-score, high = 0.3 E-score and over

Task item: Which band does ACACCGGT fall in?
Reply: high

Task item: Exercise: read the entry CCGAATAC and state which class it falls under.
Reply: low

Task item: Entry GCGAACAC belongs to which category?
Reply: high

Task item: For this sequence, which bin applies? CACTAAAG
Reply: low

Task item: Which class holds CCATGGAA ?
Reply: low

Task item: Would you mind sorting ACGTGTCT into the appropriate category?
Reply: high

Task item: Please report the category associated with GAGTGTAC , nothing else.
Reply: high

Task item: Field: class (binding signal) — entry: CCGTGTCC
Reply: high

Task item: Textbook exercise: identify the category of the sequence given here, CCCCGTCG , according to its measured value.
Reply: low

Task item: Please report the category associated with ACAAGGTG , nothing else.
Reply: intermediate

Task item: Looking at ACCCTGTA , which class would you pick?
Reply: low

Task item: Bin? ACCGAATA
Reply: low

Task item: Please report the category associated with ACAGCACC , nothing else.
Reply: low

Task item: Which binding signal band matches ATACCCAG ?
Reply: intermediate

Task item: Entry ACCCCCGC belongs to which category?
Reply: high

Task item: State the class of the sequence shown: ACACCCGC
Reply: high

Task item: Entry CCCCTAAG belongs to which category?
Reply: low

Task item: Consider ACACCAGT . To which binding signal class does it belong?
Reply: high

Task item: Please classify: CACCCGCC
Reply: high

Task item: Sort CCATTACA into one of the categories.
Reply: low

Task item: Category of ACCCCGGC , please.
Reply: intermediate

Task item: Would you mind sorting AGGTGCAC into the appropriate category?
Reply: intermediate

Task item: Which category does the recorded binding signal put ACTAGGGA in?
Reply: low

Task item: In plain terms, what class is CCCTGTCC ?
Reply: low

Task item: Form: Item = CAAAGGGG ; Class = ?
Reply: low

Task item: Which category fits this record: GCACCCGA
Reply: intermediate

Task item: Bin this entry: CGGGTACC
Reply: low

Task item: Which binding signal band matches CCGTGATC ?
Reply: low

Task item: Assign a bin to ACTCCAGG
Reply: intermediate

Task item: // bin(item) where item = CGGTGCTC
Reply: intermediate

Task item: Textbook exercise: identify the category of the sequence given here, CCGAACCC , according to its measured value.
Reply: low

Task item: Just checking, what class would you give ACACCGGA here?
Reply: high

Task item: Please report the category associated with TCGTGTCA , nothing else.
Reply: high

Task item: Which class is correct for the following sequence? CACCCTCA
Reply: intermediate

Task item: Just checking, what class would you give CAACCGTG here?
Reply: low

Task item: In plain terms, what class is ACGGGTAT ?
Reply: intermediate

Task item: Category lookup for the sequence CAGTGTTC
Reply: high

Task item: Which band does GCACCAGA fall in?
Reply: low

Task item: Which class does CACTGTAC fall in?
Reply: low

Task item: # bin label for ATGTGTAC
Reply: intermediate

Task item: Using the reported binding signal, which band applies to AAGTGTGT ?
Reply: intermediate

Task item: Bin this entry: AAGTGTTC
Reply: intermediate

Task item: Kindly identify the class of ACACAGGT .
Reply: intermediate

Task item: Category lookup for the sequence CTGTGTTC
Reply: low

Task item: Into which bin does this sequence go? ACCGGGTA
Reply: intermediate

Task item: Would you mind sorting AACCCACC into the appropriate category?
Reply: low

Task item: Categorize the following entry: CAGTGCAC
Reply: low

Task item: # bin lookup: classify ACGAGCAC by its binding signal
Reply: intermediate

Task item: Note: place this sequence into its band. Item: GAGTGCTA
Reply: low

Task item: Class for ACGCGGTG ?
Reply: high

Task item: Lab note: which band did CAGTGTAC land in?
Reply: high

Task item: # classify by binding signal band: ACCCCAAC
Reply: intermediate

Task item: Where would CACTGTTA land among the classes by reported binding signal?
Reply: intermediate

Task item: Kindly identify the class of GATTAACA .
Reply: low

Task item: Band for the recorded binding signal of AGTGTACA ?
Reply: high

Task item: Which binding signal category applies to AAGTGTTA here?
Reply: high

Task item: Which category fits this record: ACCCGACC
Reply: intermediate

Task item: Into which category would you place ACTTCTTA ?
Reply: low

Task item: Exam item: assign CCAATTTA to the correct category.
Reply: intermediate

Task item: Hi there! Could you help me figure out the category for ACACCGGG please?
Reply: high

Task item: Lab log: CGTGTACC — assign binding signal category
Reply: high

Task item: Band assignment needed for CGATGTAC please.
Reply: intermediate

Task item: GET /class?item= CGGTGTTC
Reply: high

Task item: Field: class (binding signal) — entry: CAGTGTAG
Reply: high

Task item: Category lookup for the sequence ACGTGTCA
Reply: high

Task item: Category lookup for the sequence ACACCCGA
Reply: high

Task item: Which binding signal category applies to CCCATGGA here?
Reply: low

---

I'd be grateful if you could share measured binding signal for these entries.
# target_system: SIX1-Q177R homeodomain (human, UniProt Q15475 108-198, Q177R)
# Sequence: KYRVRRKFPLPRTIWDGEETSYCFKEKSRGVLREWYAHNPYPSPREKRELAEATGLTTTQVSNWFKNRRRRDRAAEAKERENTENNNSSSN
# protocol_text: universal protein binding microarray; Universal all-10-mer PBM (8x60K, AMADID 030236), 300 nM GST-tagged protein, Alexa Fluor 488 anti-GST; buffer, salt, pH and temperature not stated (as in Berger); high values mean tight binding
# condition_set: protein: ivt; tags: N-terminal GST; dsDNA, one strand shown
The full ranking holds about 33,000 sequences; the median of “e-score” is about -0.05, and the highest 2% start at about 0.38. What follows is part of a selection rich in the highest values, with near analogues and random picks from the rest.
All answers are understood in E-score, so give the number only.

Task item: Determine reported binding signal for ACACGCGG ; test system: SIX1-Q177R homeodomain (human, UniProt Q15475 108-198, Q177R).
Reply: 0.402

Task item: Provide binding signal, tested on SIX1-Q177R homeodomain (human, UniProt Q15475 108-198, Q177R), for CGAAGTAC .
Reply: 0.174

Task item: Give binding signal for this entry on SIX1-Q177R homeodomain (human, UniProt Q15475 108-198, Q177R): ATGTGTAG
Reply: 0.183

Task item: Provide measured binding signal on SIX1-Q177R homeodomain (human, UniProt Q15475 108-198, Q177R) for CCGGACGA please.
Reply: 0.185

Task item: Give SIX1-Q177R homeodomain (human, UniProt Q15475 108-198, Q177R) binding signal for the following sequence: ATACGCGA
Reply: 0.151

Task item: Fill in: binding signal on SIX1-Q177R homeodomain (human, UniProt Q15475 108-198, Q177R), entry CCGGTATC
Reply: 0.284

Task item: Answer with binding signal of CCGGATAC measured for SIX1-Q177R homeodomain (human, UniProt Q15475 108-198, Q177R).
Reply: 0.262

Task item: Fetch value of binding signal on SIX1-Q177R homeodomain (human, UniProt Q15475 108-198, Q177R) for GACGCCGC .
Reply: 0.151

Task item: Look up and report binding signal, with SIX1-Q177R homeodomain (human, UniProt Q15475 108-198, Q177R) as system, for TGCGAACA
Reply: 0.158

Task item: Under SIX1-Q177R homeodomain (human, UniProt Q15475 108-198, Q177R): report binding signal of GCGGATAC .
Reply: 0.268

Task item: # return binding signal of CACCGAAC (system: SIX1-Q177R homeodomain (human, UniProt Q15475 108-198, Q177R))
Reply: 0.335

Task item: Report binding signal from SIX1-Q177R homeodomain (human, UniProt Q15475 108-198, Q177R) testing of ACTCGGTG
Reply: 0.368

Task item: State recorded binding signal with SIX1-Q177R homeodomain (human, UniProt Q15475 108-198, Q177R), entry ACGGTGCG , no comment.
Reply: 0.167

Task item: Please report binding signal with SIX1-Q177R homeodomain (human, UniProt Q15475 108-198, Q177R) for item ACGGTGTG .
Reply: 0.367

Task item: Param request: binding signal | system SIX1-Q177R homeodomain (human, UniProt Q15475 108-198, Q177R) | item GCGCACAC
Reply: 0.289

Task item: Name the value of binding signal reported for AGGTGTAT when tested on SIX1-Q177R homeodomain (human, UniProt Q15475 108-198, Q177R).
Reply: 0.441

Task item: // fetch binding signal; item: CACCGCGG ; system: SIX1-Q177R homeodomain (human, UniProt Q15475 108-198, Q177R)
Reply: 0.351

Task item: Give binding signal for GTGTACCA tested on SIX1-Q177R homeodomain (human, UniProt Q15475 108-198, Q177R).
Reply: 0.445

Task item: Report binding signal on SIX1-Q177R homeodomain (human, UniProt Q15475 108-198, Q177R) for this entry: ACCGCGGT
Reply: 0.187

Task item: GET binding signal | system: SIX1-Q177R homeodomain (human, UniProt Q15475 108-198, Q177R) | item: CGCACCGC
Reply: 0.209

Task item: Give the observed binding signal of AACACCGG for SIX1-Q177R homeodomain (human, UniProt Q15475 108-198, Q177R).
Reply: 0.483

Task item: Recall the reported binding signal of GACACCGC on SIX1-Q177R homeodomain (human, UniProt Q15475 108-198, Q177R) and write it down.
Reply: 0.487

Task item: Fill in binding signal for CACGAAAA tested with SIX1-Q177R homeodomain (human, UniProt Q15475 108-198, Q177R).
Reply: 0.157

Task item: Report the value of binding signal obtained on SIX1-Q177R homeodomain (human, UniProt Q15475 108-198, Q177R) for ACACGCGT .
Reply: 0.402
